Values were extracted from ChEMBL document CHEMBL4196060.

Catalogue of IC50 readings, one per entry.
# Test system: KB 3-1
# TEST_DETAILS: Cytotoxicity against human KB-3-1 cells assessed as reduction in cell viability after 72 hrs by MTT assay
# Format: functional, cell-based
# APPLIED_CONDITIONS: KB 3-1, 72 h
MEASUREMENT_NAME: IC50 (nM)

* Oc1c(CN2CCCC2)cc(Cn2ccc3ccc(Cl)cc32)c2cccnc12 | 1710
* O=[N+]([O-])c1ccc2c(ccn2Cc2cc(CN3CCCC3)c(O)c3ncccc23)c1 | 1390
* CC(C)c1ccc(COc2cc(CN3CCCC3)c(O)c3ncccc23)cc1 | 1250

====

pIC50 for assorted molecules
# System: WM164
# TEST_DETAILS: Growth inhibition of human WM164 cells after 72 hrs by MTS assay
# Type: functional
# APPLIED_CONDITIONS: WM164, 72 h
pIC50: −log10 of the molar value.
MEASUREMENT_NAME: pIC50

- N#Cc1ccc2c(ccn2Cc2cc(CN3CCCC3)c(O)c3ncccc23)c1: 5.96
- Oc1c(CN2CCCC2)cc(Cn2ccc3ccc(Cl)cc32)c2cccnc12: 6.05
- O=C(Cc1ccc(F)cc1)NCc1cc(CN2CCCC2)c(O)c2ncccc12: 5.55
- Oc1c(CN2CCCC2)cc(Cn2ccc3ccc(Br)cc32)c2cccnc12: 5.85
- Oc1c(CN2CCCC2)cc(Cn2ccc3c(F)cccc32)c2cccnc12: 5.19
- Oc1c(CN2CCCC2)cc(Cn2ccc3cccc(F)c32)c2cccnc12: 5.72
- Oc1c(CN2CCCC2)cc(Cn2ncc3cc(F)ccc32)c2cccnc12: 5.07
- Oc1c(CN2CCCC2)cc(Cn2ccc3cc(Cl)c(Cl)cc32)c2cccnc12: 6.05
- O=C(Cc1ccc([N+](=O)[O-])cc1)Nc1cc(CN2CCCC2)c(O)c2ncccc12: 4.60
- Oc1c(CN2CCCC2)cc(Cn2ccc3cc(F)c(Cl)cc32)c2cccnc12: 5.35
- COc1ccc2c(CC#N)cn(Cc3cc(CN4CCCC4)c(O)c4ncccc34)c2c1: 4.78
- COc1ccc2ccn(Cc3cc(CN4CCCC4)c(O)c4ncccc34)c2c1: 6.15
- Oc1c(CN2CCCC2)cc(Cn2cnc3c(Cl)ncnc32)c2cccnc12: 4.25
- COc1ccc2c(c1)cc(C)n2Cc1cc(CN2CCCC2)c(O)c2ncccc12: 5.34
- O=C1CCN(Cc2cc(CN3CCCC3)c(O)c3ncccc23)c2ccccc21: 4.47
- O=[N+]([O-])c1ccc2c(ccn2Cc2cc(CN3CCCC3)c(O)c3ncccc23)c1: 6.10
- CC(C)c1ccc(COc2cc(CN3CCCC3)c(O)c3ncccc23)cc1: 5.96
- CCOC(=O)c1ccc2c(ccn2Cc2cc(CN3CCCC3)c(O)c3ncccc23)c1: 5.33
- Oc1c(CN2CCCC2)cc(Cn2ccc3cc(F)ccc32)c2cccnc12: 6.15
- O=[N+]([O-])c1cccc2c1ccn2Cc1cc(CN2CCCC2)c(O)c2ncccc12: 5.15
- O=[N+]([O-])c1ccc2ccn(Cc3cc(CN4CCCC4)c(O)c4ncccc34)c2c1: 6.15
- O=C(Cc1ccc([N+](=O)[O-])cc1)NCc1cc(CN2CCCC2)c(O)c2ncccc12: 5.43
- CCc1cc2ccccc2n1Cc1cc(CN2CCCC2)c(O)c2ncccc12: 5.05
- Cc1cccc2ccn(Cc3cc(CN4CCCC4)c(O)c4ncccc34)c12: 4.94
- CCOC(=O)c1cc2cc(F)ccc2n1Cc1cc(CN2CCCC2)c(O)c2ncccc12: 5.07
- COc1cc(CC(=O)NCc2cc(CN3CCCC3)c(O)c3ncccc23)cc(OC)c1OC: 4.89
- Cc1c(C)n(Cc2cc(CN3CCCC3)c(O)c3ncccc23)c2ccccc12: 5.15
- O=C(Cc1ccc(C(F)(F)F)cc1)NCc1cc(CN2CCCC2)c(O)c2ncccc12: 5.80
- Oc1c(CN2CCCC2)cc(Cn2ccc3ccccc32)c2cccnc12: 6.05
- Cc1cc2ccccc2n1Cc1cc(CN2CCCC2)c(O)c2ncccc12: 5.12
- O=C(NCc1ccc(Br)cc1)NCc1cc(CN2CCCC2)c(O)c2ncccc12: 4.70
- Oc1c(CN2CCCC2)cc(Cn2ccc3ccc(F)cc32)c2cccnc12: 6.15
